protocol.text: Liver microsomal stability, human liver microsomes
Format: in vitro ADME
test.conditions: 1 μM compound, NADPH, read-out: t1/2 (min) in HLM
metric: half-life at 1 μM

Some solved entries appear below for comparison.
[
  {
    "molecule": "CCn1c(-c2ccc(Cn3nc(OC)c4cnc(-c5c(OC)ncnc5C5CC5)nc43)cc2)nc(C(F)(F)F)c1Br [Example 189]",
    "half-life at 1 μM": "> 25 min"
  },
  {
    "molecule": "CCn1cc(C(F)(F)F)nc1-c1ccc([C@H](C)n2nc(OC)c3cnc(-c4c(OC)ncnc4C4CC4)nc32)cc1 [Example 180]",
    "half-life at 1 μM": "> 25 min"
  },
  {
    "molecule": "CCn1cc(C(F)(F)F)nc1-c1ccc([C@@H](C)n2ncc3cnc(-c4c(OC)ncnc4C4CCC4)nc32)cc1 (single isomer, unassigned) [Example 100]",
    "half-life at 1 μM": "< 25 min"
  },
  {
    "molecule": "COc1ncnc(C2CC2)c1-c1ncc2ncn(Cc3ccc(-c4nc(C(F)(F)F)cn4C)cc3)c2n1 [Example 203]",
    "half-life at 1 μM": "< 25 min"
  }
]

Param item = CCOc1ncnc(OC)c1-c1ncc2cnn(Cc3ccc(-c4nc(C(F)(F)F)cn4CC)cc3)c2n1 [Example 113] ; retrieve measured half-life at 1 μM.
> 25 min
